Data credit: BindingDB's records for doi:10.1111/j.1747-0285.2011.01270.x

Below, each entry is listed alongside its reported pIC50.
biological target: Gag-Pol polyprotein [1148-1435] (Human immunodeficiency virus 1); construct: 1148-1435; assay: In Vitro Integrase Assay
pIC50: −log10 of the molar value.
Measurement type: pIC50

{"columns": ["Smiles", "Observed measurement"],
 "data": [
  ["Cc1c2c(c(O)c(=O)n1-c1ccccc1)C(=O)N(Cc1ccc(F)c(Cl)c1)C2=O", 5.19],
  ["O=C1c2c(CO)[nH]c(=O)c(O)c2C(=O)N1Cc1ccc(F)c(Cl)c1", 5.19],
  ["COC(=O)CCc1c2c(c(O)c(=O)n1C(C)C)C(=O)N(Cc1ccc(F)c(Cl)c1)C2=O", 5.15],
  ["Cc1c2c(c(O)c(=O)n1C)C(=O)N(Cc1ccc(F)c(Cl)c1)C2=O", 5.17],
  ["CC(=O)OCc1c2c(c(O)c(=O)n1C(C)C)C(=O)N(Cc1ccc(F)c(Cl)c1)C2=O", 4.81],
  ["CC(=O)OCc1[nH]c(=O)c(O)c2c1C(=O)N(Cc1ccc(F)c(Cl)c1)C2=O", 4.91],
  ["CC(C)Cc1c2c(c(O)c(=O)n1C(C)C)C(=O)N(Cc1ccc(F)c(Cl)c1)C2=O", 4.67]
]}
